TESTED TARGET: Cyclophilin A (Homo sapiens)
Construct: made in house
Sequence (P62937 whole entry, species assumed): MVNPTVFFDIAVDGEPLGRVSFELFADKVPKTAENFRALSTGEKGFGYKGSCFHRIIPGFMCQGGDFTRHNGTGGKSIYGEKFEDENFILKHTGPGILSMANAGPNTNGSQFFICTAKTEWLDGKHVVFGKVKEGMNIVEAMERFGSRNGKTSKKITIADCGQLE
ASSAY SUMMARY: AlphaLISA inhibition of binding of biotinylated Cyclosporin A to FLAG tagged Cyclophilin A
MEASUREMENT CONDITIONS: AlphaLISA signal; test concentration not given
Where a SMILES comes first, the peptide text is derived from it. [ ]: non-standard residue; d: D form. MeBmt = C/C=C/C[C@@H](C)[C@@H](O)[C@H](NC)C(=O)O; NMeF = CN[C@@H](Cc1ccccc1)C(=O)O; NMeL = CN[C@@H](CC(C)C)C(=O)O; Tle = CC(C)(C)[C@H](N)C(=O)O; NMeV = CN[C@H](C(=O)O)C(C)C; NMeA = CN[C@@H](C)C(=O)O; Abu = CC[C@H](N)C(=O)O; Sar = CNCC(=O)O
QUANTITY KIND: % signal (%)
Answers are plain numbers, in %.

| MOLECULE | TESTED TARGET | QUANTITY KIND | READOUT NUMBER |
| --- | --- | --- | --- |
| C/C=C/C[C@@H](C)[C@@H](O)[C@H]1C(=O)N[C@@H](CC)C(=O)N(C)CC(=O)N(C)[C@@H](Cc2ccccc2)C(=O)N[C@@H](C(C)C)C(=O)N(C)[C@@H](CC(C)C)C(=O)N[C@@H](CC)C(=O)N[C@H](C)C(=O)N(C)[C@@H](CC(C)C)C(=O)N(C)[C@@H](CC(C)C)C(=O)N(C)[C@@H](C(C)C)C(=O)N1C [Compound C96] (cyclo([Abu][Sar][NMeF]V[NMeL][Abu][dA][NMeL][NMeL][NMeV][MeBmt])) | Cyclophilin A (Homo sapiens) | % signal | 5.00 |
| C/C=C/C[C@@H](C)[C@@H](O)[C@H]1C(=O)N[C@@H](CC)C(=O)N(C)CC(=O)N(C)[C@@H](C)C(=O)N[C@@H](C(C)(C)C)C(=O)N(C)[C@@H](C)C(=O)N[C@@H](CC(C)C)C(=O)N[C@H](C)C(=O)N(C)[C@@H](CC(C)C)C(=O)N(C)[C@@H](CC(C)C)C(=O)N(C)[C@@H](C(C)C)C(=O)N1C [Compound C70] (cyclo([MeBmt][Abu][Sar][NMeA][Tle][NMeA]L[dA][NMeL][NMeL][NMeV])) | Cyclophilin A (Homo sapiens) | % signal | 0.05 |
| C/C=C/C[C@@H](C)[C@@H](O)[C@H]1C(=O)N[C@@H](CC)C(=O)N(C)CC(=O)N(C)CC(=O)N[C@@H](C(C)C)C(=O)N(C)[C@@H](CC(C)C)C(=O)N[C@@H](C)C(=O)N[C@H](C)C(=O)N(C)[C@@H](CC(C)C)C(=O)N(C)[C@@H](CC(C)C)C(=O)N(C)[C@@H](C(C)C)C(=O)N1C | Cyclophilin A (Homo sapiens) | % signal | 1.56 |
| C/C=C/C[C@@H](C)[C@@H](O)[C@H]1C(=O)N[C@@H](CC)C(=O)N(C)CC(=O)N(C)[C@@H](C(C)C)C(=O)N[C@@H](C(C)C)C(=O)N(C)[C@@H](C)C(=O)N[C@@H](CC(C)C)C(=O)N[C@H](C)C(=O)N(C)[C@@H](CC(C)C)C(=O)N(C)[C@@H](CC(C)C)C(=O)N(C)[C@@H](C(C)C)C(=O)N1C [Compound C89] (cyclo([MeBmt][Abu][Sar][NMeV]V[NMeA]L[dA][NMeL][NMeL][NMeV])) | Cyclophilin A (Homo sapiens) | % signal | 3.10 |
| C/C=C/C[C@@H](C)[C@@H](O)[C@H]1C(=O)N[C@@H](CC)C(=O)N(C)CC(=O)N(C)[C@@H](C)C(=O)N[C@@H](C(C)C)C(=O)N(C)[C@@H](CC(C)C)C(=O)N[C@@H](C)C(=O)N[C@H](C)C(=O)N(C)[C@@H](CC(C)C)C(=O)N(C)[C@@H](CC(C)C)C(=O)N(C)[C@@H](C(C)C)C(=O)N1C | Cyclophilin A (Homo sapiens) | % signal | −0.01 |

Pending molecule:
Entry C/C=C/C[C@@H](C)[C@@H](O)[C@H]1C(=O)N[C@@H](CC)C(=O)N(C)CC(=O)N(C)[C@@H](CC(C)C)C(=O)N[C@@H](C(C)C)C(=O)N(C)[C@@H](C)C(=O)N[C@@H](C)C(=O)N[C@H](C)C(=O)N(C)[C@@H](CC(C)C)C(=O)N(C)[C@@H](CC(C)C)C(=O)N(C)[C@@H](C(C)C)C(=O)N1C , % signal reported as 7.29
